Data credit: patent US6875761B2

target: serotonin 1A receptor (Rattus norvegicus); construct: To the receptor fraction of the hippocampus were added a test compound and 0.5 nM of [^3H]; 8-hydroxy-dipropylaminotetralin; from tissue; host or cells: rat hippocampus membrane fraction; experiment: Binding test on [3H] 8-hydroxy-dipropylaminotetralin, hippocampus receptor fraction; set-up: species or system SD rats; details: rat hippocampus receptor fraction, 0.5 nM [3H] 8-OH-DPAT, room temperature 30 min; read-out: 5HT1
Sequence (P19327 whole entry): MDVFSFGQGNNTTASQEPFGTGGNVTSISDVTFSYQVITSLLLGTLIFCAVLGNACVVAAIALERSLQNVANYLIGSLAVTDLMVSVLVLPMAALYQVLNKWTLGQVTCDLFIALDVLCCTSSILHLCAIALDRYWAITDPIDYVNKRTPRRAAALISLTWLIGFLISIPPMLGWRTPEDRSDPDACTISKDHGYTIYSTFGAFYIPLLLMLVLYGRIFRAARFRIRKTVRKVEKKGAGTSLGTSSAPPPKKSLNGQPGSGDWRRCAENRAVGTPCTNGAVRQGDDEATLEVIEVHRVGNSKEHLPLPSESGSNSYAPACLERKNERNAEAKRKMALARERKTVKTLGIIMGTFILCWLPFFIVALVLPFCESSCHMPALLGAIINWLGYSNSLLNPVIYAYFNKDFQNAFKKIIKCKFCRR
Counter-ions that a name gives are not always drawn.
Reported pKi values are given for each entry in this list.
# reply with the number alone; pKi is -log10 of concentration in mol/L

Consider the reported pKi for these compounds:
{"columns": ["compound", "observedResult"],
 "data": [
  ["CCN1CCN(c2nc(-c3ccc(OCCO)cc3OC)cc3ccccc23)CC1 [Example 425]", 6.49],
  ["CCN1CCN(c2nc(/C=C\\c3ccc(OC)cc3)cc3ccccc23)CC1 [Example 191, Oxalate]", 7.89],
  ["CCN1CCN(c2nc(-c3ccc(OCCC#N)cc3)cc3ccccc23)CC1 [Example 52, Hydrochloride]", 7.63]
]}

For CCN1CCN(c2nc(-c3ccc(S(=O)(=O)CC)nc3)cc3ccccc23)CC1 [Example 130, Hydrochloride] the compound record lists pKi as 7.61
